Provenance of the data: paper PMC3079779

Consider the following molecules and their measured pIC50 readings.
- Tested On: UniProt Q12809
- Sequence (Q12809 whole entry): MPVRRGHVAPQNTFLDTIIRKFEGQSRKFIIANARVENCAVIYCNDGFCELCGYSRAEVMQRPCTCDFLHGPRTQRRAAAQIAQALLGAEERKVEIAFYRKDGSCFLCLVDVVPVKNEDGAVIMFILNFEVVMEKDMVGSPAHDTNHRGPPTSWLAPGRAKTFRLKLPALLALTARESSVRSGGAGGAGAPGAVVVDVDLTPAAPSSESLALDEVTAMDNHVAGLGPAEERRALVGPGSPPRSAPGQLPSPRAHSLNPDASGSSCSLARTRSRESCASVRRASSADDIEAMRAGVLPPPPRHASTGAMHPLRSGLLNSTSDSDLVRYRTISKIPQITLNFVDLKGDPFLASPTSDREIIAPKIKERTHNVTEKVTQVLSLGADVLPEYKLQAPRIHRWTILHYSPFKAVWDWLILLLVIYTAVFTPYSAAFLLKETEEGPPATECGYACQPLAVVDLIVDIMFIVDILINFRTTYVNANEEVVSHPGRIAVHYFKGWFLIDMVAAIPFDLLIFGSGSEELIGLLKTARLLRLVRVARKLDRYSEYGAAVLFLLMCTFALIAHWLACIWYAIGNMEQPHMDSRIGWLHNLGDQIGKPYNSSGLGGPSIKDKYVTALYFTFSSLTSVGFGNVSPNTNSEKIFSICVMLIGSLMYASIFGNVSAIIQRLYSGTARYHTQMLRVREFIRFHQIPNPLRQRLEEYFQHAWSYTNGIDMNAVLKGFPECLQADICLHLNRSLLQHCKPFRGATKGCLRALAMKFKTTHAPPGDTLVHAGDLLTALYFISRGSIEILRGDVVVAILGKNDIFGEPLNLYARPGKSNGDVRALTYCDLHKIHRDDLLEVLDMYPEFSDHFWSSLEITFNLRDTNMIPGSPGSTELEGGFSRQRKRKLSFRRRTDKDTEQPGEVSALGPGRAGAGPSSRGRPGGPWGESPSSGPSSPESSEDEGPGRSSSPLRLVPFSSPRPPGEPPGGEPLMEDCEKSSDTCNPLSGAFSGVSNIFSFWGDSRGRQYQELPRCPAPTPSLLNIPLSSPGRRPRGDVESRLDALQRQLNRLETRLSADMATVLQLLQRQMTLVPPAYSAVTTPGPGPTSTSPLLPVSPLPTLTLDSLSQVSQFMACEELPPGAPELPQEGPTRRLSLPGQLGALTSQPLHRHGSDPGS
- Assay Overview: Automated whole cell patch clamp, hERG tail current in hERG CHO-K1 cells
- Condition Description: read-out: Patch clamp IC50; automated whole cell patch clamp, hERG tail current, hERG CHO-K1 cells, room temperature
Hey, just a heads up that pIC50 is the negative log base 10 of the concentration in molar.

| Molecule | Assay Metric | Numeric Value |
| --- | --- | --- |
| CN(C)c1ccc(C(=C2C=CC(=[N+](C)C)C=C2)c2ccccc2)cc1.CN(C)c1ccc(C(=C2C=CC(=[N+](C)C)C=C2)c2ccccc2)cc1.O=C(O)C(=O)O.O=C([O-])C(=O)O.O=C([O-])C(=O)O [malachite green oxalate] | pIC50 | 5.72 |

Alright, here's another molecule for you.
Lookup: Entry CCCCCCCC[N+](CCCCCCCC)(CCCCCCCC)CCCCCCCC.[Br-] [tetra-n-octylammonium bromide] : reported pIC50 = ?
Found: 7.09
